Taken from ChEMBL document CHEMBL1144502.

# protocol summary: Half life in ip dosed mouse
# Assay type: ADME, organism-based
# condition info: in vivo
quantity measured: half-life (h)
Reply with just the number (in h).

Any idea what half-life was measured for `Cc1ccc([N+](=O)[O-])cc1S(=O)(=O)c1nc(-c2cnc3ccc(Cl)cn23)cs1.Cl` ?
2.6

---

# system tested: Phosphatidylinositol 4,5-bisphosphate 3-kinase catalytic subunit beta isoform (Homo sapiens, UniProt P42338)
# Sequence (P42338 whole entry, canonical isoform): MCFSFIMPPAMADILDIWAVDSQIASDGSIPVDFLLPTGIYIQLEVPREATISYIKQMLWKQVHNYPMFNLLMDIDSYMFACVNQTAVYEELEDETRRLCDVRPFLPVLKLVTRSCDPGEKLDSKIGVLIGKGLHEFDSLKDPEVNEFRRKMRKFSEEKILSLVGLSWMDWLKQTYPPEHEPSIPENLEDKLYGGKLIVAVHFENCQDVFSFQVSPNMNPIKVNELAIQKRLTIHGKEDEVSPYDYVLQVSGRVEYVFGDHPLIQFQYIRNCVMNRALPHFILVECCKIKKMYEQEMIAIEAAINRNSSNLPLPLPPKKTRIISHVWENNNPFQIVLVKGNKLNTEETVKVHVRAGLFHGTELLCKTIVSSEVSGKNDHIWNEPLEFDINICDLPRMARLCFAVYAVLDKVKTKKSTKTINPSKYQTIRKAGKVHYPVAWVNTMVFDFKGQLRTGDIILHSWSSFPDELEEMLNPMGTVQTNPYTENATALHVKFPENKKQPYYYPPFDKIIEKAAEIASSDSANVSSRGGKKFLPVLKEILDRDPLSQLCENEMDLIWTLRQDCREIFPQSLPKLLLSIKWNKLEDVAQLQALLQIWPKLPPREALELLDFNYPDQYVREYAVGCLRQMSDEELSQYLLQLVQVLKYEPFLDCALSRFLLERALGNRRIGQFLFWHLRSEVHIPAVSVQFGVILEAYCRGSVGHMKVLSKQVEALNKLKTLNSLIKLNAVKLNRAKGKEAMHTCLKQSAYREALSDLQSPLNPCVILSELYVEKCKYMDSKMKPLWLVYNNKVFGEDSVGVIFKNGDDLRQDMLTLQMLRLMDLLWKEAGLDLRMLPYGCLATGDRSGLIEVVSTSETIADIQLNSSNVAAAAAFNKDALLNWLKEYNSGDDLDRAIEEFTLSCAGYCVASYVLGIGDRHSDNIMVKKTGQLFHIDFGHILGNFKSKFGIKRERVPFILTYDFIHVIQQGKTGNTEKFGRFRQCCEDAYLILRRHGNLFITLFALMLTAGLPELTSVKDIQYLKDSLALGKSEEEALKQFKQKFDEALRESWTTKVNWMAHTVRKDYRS
# protocol summary: Inhibition of GST-tagged human PI3K p110-beta by SPA
quantity measured: pIC50
Quick note: pIC50 means taking -log10 of the concentration in moles per liter.

Any idea what pIC50 was measured for `Cc1ccc([N+](=O)[O-])cc1S(=O)(=O)c1nc(-c2cnc3ccc(Cl)cn23)cs1.Cl` ?
6.77

---

Could you please report measured pIC50 for the items listed next?
# system tested: Phosphatidylinositol 4,5-bisphosphate 3-kinase catalytic subunit alpha isoform (Bos taurus)
# Sequence (P32871 whole entry, canonical isoform): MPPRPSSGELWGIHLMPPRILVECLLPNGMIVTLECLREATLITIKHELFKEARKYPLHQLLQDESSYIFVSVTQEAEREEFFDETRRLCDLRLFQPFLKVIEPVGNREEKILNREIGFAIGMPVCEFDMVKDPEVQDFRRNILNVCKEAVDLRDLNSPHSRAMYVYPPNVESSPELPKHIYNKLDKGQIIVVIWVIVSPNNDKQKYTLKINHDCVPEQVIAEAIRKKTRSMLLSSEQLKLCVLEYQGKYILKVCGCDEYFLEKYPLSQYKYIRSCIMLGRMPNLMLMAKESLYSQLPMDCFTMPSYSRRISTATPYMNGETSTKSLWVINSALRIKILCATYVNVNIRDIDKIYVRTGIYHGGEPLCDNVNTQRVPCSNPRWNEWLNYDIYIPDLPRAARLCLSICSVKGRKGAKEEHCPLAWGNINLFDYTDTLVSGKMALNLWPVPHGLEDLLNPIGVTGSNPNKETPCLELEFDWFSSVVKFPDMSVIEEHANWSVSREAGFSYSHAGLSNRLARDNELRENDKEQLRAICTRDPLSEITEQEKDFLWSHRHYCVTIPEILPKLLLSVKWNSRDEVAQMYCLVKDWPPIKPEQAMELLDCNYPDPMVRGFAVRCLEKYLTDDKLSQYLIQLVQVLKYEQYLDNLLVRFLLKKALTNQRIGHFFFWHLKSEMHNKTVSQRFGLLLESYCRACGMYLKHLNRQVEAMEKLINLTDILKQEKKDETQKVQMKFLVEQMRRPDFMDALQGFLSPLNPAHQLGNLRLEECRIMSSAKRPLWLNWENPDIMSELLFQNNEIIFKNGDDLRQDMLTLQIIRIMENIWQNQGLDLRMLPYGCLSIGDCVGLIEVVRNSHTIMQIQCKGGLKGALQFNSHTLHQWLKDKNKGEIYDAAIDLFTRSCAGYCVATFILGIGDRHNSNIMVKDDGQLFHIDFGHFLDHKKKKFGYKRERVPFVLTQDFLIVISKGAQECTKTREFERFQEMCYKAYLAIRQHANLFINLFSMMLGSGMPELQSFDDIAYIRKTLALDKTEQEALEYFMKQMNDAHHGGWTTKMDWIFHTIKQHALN
# protocol summary: Inhibition of GST-tagged bovine PI3K p110-alpha by SPA
Quick note: pIC50 means taking -log10 of the concentration in moles per liter.

Any idea what pIC50 was measured for `Cc1ccc([N+](=O)[O-])cc1S(=O)(=O)n1ccc(-c2c(C)nc3ccc(Cl)cn23)n1` ?
8.55

Any idea what pIC50 was measured for O=[N+]([O-])c1ccc(CO)c([S+]([O-])c2nc(-c3cnc4ccc(Cl)cn34)cs2)c1 (stereo not given) ?
7.70

Any idea what pIC50 was measured for `Cc1nc2ccc(Cl)cn2c1-c1ccn(S(=O)(=O)c2ccc(F)cc2)n1` ?
6.12

Any idea what pIC50 was measured for `Cc1ccc([N+](=O)[O-])cc1S(=O)(=O)n1ccc(-c2c(C)nc3ccc(Br)cn23)n1` ?
8.51

Any idea what pIC50 was measured for `Cc1ccc([N+](=O)[O-])cc1S(=O)(=O)c1nc(-c2cnc3ccc(Cl)cn23)cs1.Cl` ?
8.55

---

# system tested: Phosphatidylinositol 4,5-bisphosphate 3-kinase catalytic subunit gamma isoform (Homo sapiens, UniProt P48736)
# Sequence (P48736 whole entry, canonical isoform): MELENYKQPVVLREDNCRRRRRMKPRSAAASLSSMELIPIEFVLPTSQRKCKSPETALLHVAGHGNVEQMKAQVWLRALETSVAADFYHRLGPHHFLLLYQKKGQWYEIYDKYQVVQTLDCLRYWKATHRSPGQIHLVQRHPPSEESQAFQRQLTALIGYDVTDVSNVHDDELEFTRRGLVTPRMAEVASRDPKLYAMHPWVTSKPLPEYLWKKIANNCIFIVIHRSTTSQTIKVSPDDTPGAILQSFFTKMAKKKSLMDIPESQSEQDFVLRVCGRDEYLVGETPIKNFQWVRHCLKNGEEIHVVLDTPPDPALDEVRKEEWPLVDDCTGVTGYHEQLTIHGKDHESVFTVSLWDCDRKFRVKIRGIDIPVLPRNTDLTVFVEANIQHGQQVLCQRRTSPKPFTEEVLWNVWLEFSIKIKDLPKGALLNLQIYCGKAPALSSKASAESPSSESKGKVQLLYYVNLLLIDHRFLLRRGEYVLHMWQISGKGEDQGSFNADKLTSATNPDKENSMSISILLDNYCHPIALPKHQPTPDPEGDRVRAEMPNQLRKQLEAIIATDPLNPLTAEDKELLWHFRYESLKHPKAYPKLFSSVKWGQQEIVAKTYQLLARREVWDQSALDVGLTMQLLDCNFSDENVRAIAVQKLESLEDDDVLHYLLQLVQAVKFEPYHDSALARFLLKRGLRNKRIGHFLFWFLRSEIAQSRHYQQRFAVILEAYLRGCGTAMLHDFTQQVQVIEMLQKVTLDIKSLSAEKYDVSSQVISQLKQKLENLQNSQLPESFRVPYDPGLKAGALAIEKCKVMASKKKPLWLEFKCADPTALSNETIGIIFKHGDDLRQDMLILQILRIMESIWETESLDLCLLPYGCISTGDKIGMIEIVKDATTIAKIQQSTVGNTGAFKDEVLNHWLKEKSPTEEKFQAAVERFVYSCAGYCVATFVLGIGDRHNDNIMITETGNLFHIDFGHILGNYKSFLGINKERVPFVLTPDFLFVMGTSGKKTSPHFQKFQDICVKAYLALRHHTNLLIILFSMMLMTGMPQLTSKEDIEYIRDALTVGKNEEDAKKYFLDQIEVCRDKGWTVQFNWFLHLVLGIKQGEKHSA
# protocol summary: Inhibition of His-tagged PI3K p110gamma by SPA
quantity measured: pIC50
Quick note: pIC50 means taking -log10 of the concentration in moles per liter.

Any idea what pIC50 was measured for `Cc1ccc([N+](=O)[O-])cc1S(=O)(=O)c1nc(-c2cnc3ccc(Cl)cn23)cs1.Cl` ?
6.64

---

Could you please report measured pIC50 for the items listed next?
# Test system: A375 (human)
# protocol summary: Antiproliferative activity against human A375 cells after 46 hrs
# condition info: A375, 46 h
Quick note: pIC50 means taking -log10 of the concentration in moles per liter.

Lookup: pIC50 / A375 (human) / `Cc1ccc([N+](=O)[O-])cc1S(=O)(=O)n1ccc(-c2cnc3ccc(Br)cn23)n1`
6.77

Lookup: pIC50 / A375 (human) / O=[N+]([O-])c1ccc(CO)c([S+]([O-])c2nc(-c3cnc4ccc(Cl)cn34)cs2)c1 (stereo not given)
4.72

Lookup: pIC50 / A375 (human) / Cc1ccc([N+](=O)[O-])cc1[S+]([O-])c1nc(-c2cnc3ccc(Cl)cn23)cs1 (stereo not given)
6.57

Lookup: pIC50 / A375 (human) / `Cc1ccc([N+](=O)[O-])cc1S(=O)(=O)n1ccc(-c2cnc3ccc(Cl)cn23)c1`
4.92

Lookup: pIC50 / A375 (human) / `Cc1ccc([N+](=O)[O-])cc1S(=O)(=O)n1ccc(-c2c(C)nc3ccc(Br)cn23)n1`
6.14

Lookup: pIC50 / A375 (human) / `Cc1ccc([N+](=O)[O-])cc1S(=O)(=O)n1ccc(-c2c(C)nc3ccc(Cl)cn23)n1`
6.08

Lookup: pIC50 / A375 (human) / `O=c1cc(N2CCOCC2)oc2c(-c3ccccc3)cccc12`
5.08

Lookup: pIC50 / A375 (human) / `Cc1nc2ccccn2c1-c1ccn(S(=O)(=O)c2ccc(F)cc2)n1`
4.64

Lookup: pIC50 / A375 (human) / `Cc1ccc([N+](=O)[O-])cc1S(=O)(=O)c1nc(-c2cnc3ccc(Cl)cn23)cs1.Cl`
6.85

Lookup: pIC50 / A375 (human) / `Cc1ccc([N+](=O)[O-])cc1Sc1nc(-c2cnc3ccc(Cl)cn23)cs1`
5.47
